Test system: HIV-1 p1579 (E138G/H221Y/F227L/M230L)
method.description: Anti-HIV-1 activity against NNRTI-resistant strain p1579 in TZM-bl cells
Type: cell-based
test.parameters: Human immunodeficiency virus 1, TZM-bl, read-out: EC50 p1579
metric: EC50 (nM)
Numbers only, in nM.

Cc1cc(C#N)cc(C)c1Oc1nc(Nc2ccc(C#N)cc2)nc(N)c1Br; 74.9

From here, focus on the item given below.
Record request: EC50 value, item "Cc1cc(/C=C/C#N)cc(C)c1Nc1ccnc(Nc2ccc(C#N)cc2)n1"
1.26

----------
Tested on: CYP1A2, CYP2C9, CYP2C19, CYP2D6 (range over isozymes)
method.description: Cytochrome P450 inhibition assay, ranges over isozymes
Assay type: in vitro ADME
test.parameters: human, human liver microsomes
metric: IC50 at 10 min

# input molecule: "Cc1cc(C#N)cc(C)c1Oc1nc(Nc2ccc(C#N)cc2)nc(N)c1Br" ; wanted: its IC50 at 10 min
0.277 to 12 µM
